Study system: Cystic fibrosis transmembrane conductance regulator (Homo sapiens, UniProt P13569, F508DEL)
Sequence (P13569 as listed by the source): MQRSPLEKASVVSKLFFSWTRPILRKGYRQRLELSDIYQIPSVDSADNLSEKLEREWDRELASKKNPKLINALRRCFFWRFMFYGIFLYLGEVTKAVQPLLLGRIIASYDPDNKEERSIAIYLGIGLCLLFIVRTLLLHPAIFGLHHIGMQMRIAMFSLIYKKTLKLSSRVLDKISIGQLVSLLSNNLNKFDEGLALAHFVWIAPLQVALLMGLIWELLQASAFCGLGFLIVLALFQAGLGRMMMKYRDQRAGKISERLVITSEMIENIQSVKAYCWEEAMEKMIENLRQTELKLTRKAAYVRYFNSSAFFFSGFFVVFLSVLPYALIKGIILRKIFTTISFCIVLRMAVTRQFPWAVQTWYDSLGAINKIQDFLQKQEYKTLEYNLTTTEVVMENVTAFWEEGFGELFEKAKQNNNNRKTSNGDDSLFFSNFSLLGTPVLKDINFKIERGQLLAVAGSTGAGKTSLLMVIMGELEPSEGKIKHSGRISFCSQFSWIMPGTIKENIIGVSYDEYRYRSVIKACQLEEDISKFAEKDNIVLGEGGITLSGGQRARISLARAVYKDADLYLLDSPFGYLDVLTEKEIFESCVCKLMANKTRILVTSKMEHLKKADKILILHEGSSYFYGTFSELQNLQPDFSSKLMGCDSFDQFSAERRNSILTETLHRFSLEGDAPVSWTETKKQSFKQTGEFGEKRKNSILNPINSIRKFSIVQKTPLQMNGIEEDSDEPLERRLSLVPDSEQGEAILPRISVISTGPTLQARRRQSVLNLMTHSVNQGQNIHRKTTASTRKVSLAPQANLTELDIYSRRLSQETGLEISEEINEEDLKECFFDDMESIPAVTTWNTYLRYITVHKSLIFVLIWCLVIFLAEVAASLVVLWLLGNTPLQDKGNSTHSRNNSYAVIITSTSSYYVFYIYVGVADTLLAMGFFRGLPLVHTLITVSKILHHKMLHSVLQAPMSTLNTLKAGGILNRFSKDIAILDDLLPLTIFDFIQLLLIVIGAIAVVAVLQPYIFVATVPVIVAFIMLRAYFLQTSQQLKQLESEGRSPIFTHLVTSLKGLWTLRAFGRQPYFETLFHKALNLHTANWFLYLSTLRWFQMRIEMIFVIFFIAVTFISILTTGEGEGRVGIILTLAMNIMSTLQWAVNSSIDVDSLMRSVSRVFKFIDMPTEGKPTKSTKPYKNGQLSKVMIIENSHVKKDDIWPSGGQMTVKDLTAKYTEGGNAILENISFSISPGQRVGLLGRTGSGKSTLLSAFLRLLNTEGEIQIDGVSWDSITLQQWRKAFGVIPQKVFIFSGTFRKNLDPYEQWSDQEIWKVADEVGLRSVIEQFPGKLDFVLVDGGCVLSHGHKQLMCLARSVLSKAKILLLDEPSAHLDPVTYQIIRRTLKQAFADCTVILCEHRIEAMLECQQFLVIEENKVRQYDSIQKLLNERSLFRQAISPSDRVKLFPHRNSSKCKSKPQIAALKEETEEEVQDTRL
Test: Corrector activity at CFTR F508-del mutant (unknown origin) expressed in human CFBE41o cells harboring HS-YFP preincubated for 24 hrs followed by forskolin/genistein stimulation for 30 mins by fluorescence assay
Format: cell-based
Protocol conditions: read-out: pEC50 (converted)
Could you please mark 1 (yes) for values of EC50 below 10 µM and 0 (no) for values at or above it?

Known results for compounds:
1. COc1ccc(NC(=O)n2nc(-c3sc(NC(=O)C(C)(C)C)nc3C)cc2Cc2cc(Cl)ccc2OC)cc1	1 (yes)
2. CN1CCN(CCCNc2nc(-c3ccncc3)nc3c2CN(Cc2ccccc2)CC3)CC1	0 (no)
3. NC(=O)CN1CCN(c2nc(-c3cccnc3)nc3c2CN(Cc2ccccc2)CC3)CC1	0 (no)
4. COc1ccc(Cl)cc1Nc1nc(-c2sc(NC(=O)C(C)(C)C)nc2C)cs1	1 (yes)

Please determine if `C=CCc1cc(-c2sc(NC(=O)C(C)(C)C)nc2C)nn1C(=O)Nc1ccc(OC)cc1` is below 10 µM in terms of EC50. 1 (yes)

Please determine if `CN(C)CCN1CCN(c2nc(-c3cccnc3)nc3c2CN(Cc2ccccc2)CC3)CC1` is below 10 µM in terms of EC50. 0 (no)

Please determine if `COc1ccc(C(=O)N2CCN(c3nc4cc(C)cc(C)c4cc3C#N)CC2)cc1` is below 10 µM in terms of EC50. 0 (no)

Please determine if `CN1CCN(CCCNc2nc(-c3cccnc3)nc3c2CN(Cc2ccccc2)CC3)CC1` is below 10 µM in terms of EC50. 0 (no)

Please determine if `COc1ccc(CN2CCc3nc(-c4ccccn4)nc(N4CCN(CCN(C)C)CC4)c3C2)cc1` is below 10 µM in terms of EC50. 0 (no)
